Biological target: CDK6 (Homo sapiens, UniProt Q00534)
Construct: endogenous in cells
Sequence (Q00534 whole entry): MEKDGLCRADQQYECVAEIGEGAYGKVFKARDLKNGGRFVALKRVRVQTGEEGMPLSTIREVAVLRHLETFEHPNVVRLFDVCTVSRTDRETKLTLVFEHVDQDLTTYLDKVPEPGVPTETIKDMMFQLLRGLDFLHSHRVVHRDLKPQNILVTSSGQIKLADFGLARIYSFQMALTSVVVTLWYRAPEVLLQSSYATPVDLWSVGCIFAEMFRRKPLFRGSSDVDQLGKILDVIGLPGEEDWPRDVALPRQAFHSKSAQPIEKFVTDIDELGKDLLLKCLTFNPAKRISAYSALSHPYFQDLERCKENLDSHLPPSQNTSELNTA
Test: CDK6 degradation (DC50, Dmax)
Assay type: cell-based
Measured endpoint: DC50

>>> result("CC(=O)c1c(C)c2cnc(Nc3ccc(N4CCN(C(=O)N5CCN(CCN6CCN(c7ccc8c(c7)CN(C7CCC(=O)NC7=O)C8=O)CC6)CC5)CC4)cn3)nc2n(C2CCCC2)c1=O (centres unmarked)")
"> 200 nM"
>>> result("CN(C)C(=O)c1cc2cnc(Nc3ccc(N4CCN(CCCNc5ccc6c(c5)C(=O)N(C5CCC(=O)NC5=O)C6=O)CC4)cn3)nc2n1C1CCCC1 (centres unmarked)")
"< 50 nM"
>>> result("Cc1nc2c(F)cc(-c3nc(Nc4ccc(CC5CCN(C(=O)C6CCN(c7ccc(NC8CCC(=O)NC8=O)cc7)CC6)CC5)cn4)ncc3F)cc2n1C(C)C (centres unmarked)")
"50 to 200 nM"
>>> result("CC(=O)c1c(C)c2cnc(Nc3ccc(N4CCN(C(=O)N5CCN(CCC6CCN(c7ccc8c(c7)C(=O)N(C7CCC(=O)NC7=O)C8=O)CC6)CC5)CC4)cn3)nc2n(C2CCCC2)c1=O (centres unmarked)")
"> 200 nM"
>>> result("CC(=O)c1c(C)c2cnc(Nc3ccc(N4CCN(CC5CCN(C(=O)N6CCC(c7ccc8c(c7)CN(C7CCC(=O)NC7=O)C8=O)CC6)CC5)CC4)cn3)nc2n(C2CCCC2)c1=O (centres unmarked)")
"> 200 nM"

====

Target: CDK4 (Homo sapiens, UniProt P11802)
Construct: endogenous in cells
Sequence (P11802 whole entry): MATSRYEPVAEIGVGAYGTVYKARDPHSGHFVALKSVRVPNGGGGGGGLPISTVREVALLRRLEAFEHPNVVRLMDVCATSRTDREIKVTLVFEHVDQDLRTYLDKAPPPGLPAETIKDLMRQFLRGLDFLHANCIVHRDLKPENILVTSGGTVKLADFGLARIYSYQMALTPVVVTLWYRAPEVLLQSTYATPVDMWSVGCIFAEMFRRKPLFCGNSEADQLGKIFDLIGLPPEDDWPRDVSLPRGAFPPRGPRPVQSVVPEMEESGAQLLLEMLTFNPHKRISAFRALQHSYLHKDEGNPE
Experiment: CDK4 degradation (DC50, Dmax)
Assay type: cell-based
Listed next: entries and their corresponding DC50.
Measured endpoint: DC50

>>> result("Cc1nc2c(F)cc(-c3nc(Nc4ccc(CN5CCN(C(=O)C6CN(c7ccc(NC8CCC(=O)NC8=O)cc7)C6)CC5)cn4)ncc3F)cc2n1C(C)C (centres unmarked)")
"50 to 200 nM"
>>> result("CC(=O)c1c(C)c2cnc(Nc3ccc(N4CCN(C(=O)C5CCN(c6ccc7c(c6)CN(C6CCC(=O)NC6=O)C7=O)CC5)CC4)cn3)nc2n(C2CCCC2)c1=O (centres unmarked)")
"50 to 200 nM"
>>> result("Cc1nc2c(F)cc(-c3nc(Nc4ccc(CN5CCN(CC6CCN(c7ccc(N8CCC(=O)NC8=O)cc7)CC6)CC5)cn4)ncc3F)cc2n1C(C)C")
"< 50 nM"
>>> result("Cc1nc2c(F)cc(-c3nc(Nc4ccc(CC5CCN(C(=O)C6CN(c7ccc(C(=O)NC8CCC(=O)NC8=O)cc7)C6)CC5)cn4)ncc3F)cc2n1C(C)C (centres unmarked)")
"50 to 200 nM"
>>> result("CC(=O)c1c(C)c2cnc(Nc3ccc(N4CCN(CCC5CCN(c6ccc7c(c6)C(=O)N(C6CCC(=O)NC6=O)C7=O)CC5)CC4)cn3)nc2n(C2CCCC2)c1=O (centres unmarked)")
"50 to 200 nM"

====

Biological target: CDK6 (Homo sapiens, UniProt Q00534)
Construct: endogenous in cells
Assay: CDK6 degradation (DC50, Dmax)
Type: cell-based
Measured endpoint: Dmax

>>> result("CC(=O)c1c(C)c2cnc(Nc3ccc(N4CCN(C(=O)C5CN(c6ccc7c(c6)C(=O)N(C6CCC(=O)NC6=O)C7=O)C5)CC4)cn3)nc2n(C2CCCC2)c1=O (stereo not drawn)")
"> 80%"
>>> result("Cc1nc2c(F)cc(-c3nc(Nc4ccc(CN5CCN(CCCNc6ccc7c(c6)C(=O)N(C6CCC(=O)NC6=O)C7=O)CC5)cn4)ncc3F)cc2n1C(C)C (stereo not drawn)")
"> 80%"
>>> result("CC(=O)c1c(C)c2cnc(Nc3ccc(N4CCN(C5CCN(C(=O)N6CCC(c7ccc8c(c7)CN(C7CCC(=O)NC7=O)C8=O)CC6)CC5)CC4)cn3)nc2n(C2CCCC2)c1=O (stereo not drawn)")
"> 50%"

====

Below, each entry is listed with its recorded DC50.
Target: CDK4 (Homo sapiens, UniProt P11802)
Construct: endogenous in cells
Test: CDK4 degradation (DC50, Dmax)
Assay type: cell-based
Measured endpoint: DC50

>>> result("Cc1nc2c(F)cc(-c3nc(Nc4ccc(CN5CCN(CC6CN(c7ccc8c(c7)CN(C7CCC(=O)NC7=O)C8=O)C6)CC5)cn4)ncc3F)cc2n1C(C)C (centres unmarked)")
"< 50 nM"
>>> result("CC(=O)c1c(C)c2cnc(Nc3ccc(N4CCN(CC5CCN(C(=O)N6CCC(c7ccc8c(c7)CN(C7CCC(=O)NC7=O)C8=O)CC6)CC5)CC4)cn3)nc2n(C2CCCC2)c1=O (centres unmarked)")
"> 200 nM"
>>> result("CC(=O)c1c(C)c2cnc(Nc3ccc(N4CCN(CCN5CCN(C(=O)Nc6ccc7c(c6)CN(C6CCC(=O)NC6=O)C7=O)CC5)CC4)cn3)nc2n(C2CCCC2)c1=O (centres unmarked)")
"50 to 200 nM"
>>> result("CC(=O)c1c(C)c2cnc(Nc3ccc(C4CCN(C(=O)C5CN(c6ccc7c(c6)C(=O)N(C6CCC(=O)NC6=O)C7=O)C5)CC4)cn3)nc2n(C2CCCC2)c1=O (centres unmarked)")
"50 to 200 nM"
>>> result("CC(=O)c1c(C)c2cnc(Nc3ccc(N4CCN(C(=O)N5CCC(CCC6CCN(c7ccc8c(c7)C(=O)N(C7CCC(=O)NC7=O)C8=O)CC6)CC5)CC4)cn3)nc2n(C2CCCC2)c1=O (centres unmarked)")
"> 200 nM"

====

Reported DC50 values for the following compounds.
Target: CDK6 (Homo sapiens, UniProt Q00534)
Construct: endogenous in cells
Assay: CDK6 degradation (DC50, Dmax)
Assay type: cell-based
Measured endpoint: DC50

>>> result("Cc1nc2c(F)cc(-c3nc(Nc4ccc(CC5CCN(CC6CCN(c7ccc(NC8CCC(=O)NC8=O)cc7)CC6)CC5)cn4)ncc3F)cc2n1C(C)C (centres unmarked)")
"< 50 nM"
>>> result("Cc1nc2c(F)cc(-c3nc(Nc4ccc(CN5CCN(C6CN(c7ccc8c(c7)C(=O)N(C7CCC(=O)NC7=O)C8=O)C6)CC5)cn4)ncc3F)cc2n1C(C)C (centres unmarked)")
"50 to 200 nM"
>>> result("Cc1nc2c(F)cc(-c3nc(Nc4ccc(CN5CCN(C6CCN(c7ccc(NC8CCC(=O)NC8=O)cc7)CC6)CC5)cn4)ncc3F)cc2n1C(C)C (centres unmarked)")
"< 50 nM"
>>> result("CC(=O)c1c(C)c2cnc(Nc3ccc(N4CCN(CCCCN(C)c5ccc6c(c5)CN(C5CCC(=O)NC5=O)C6=O)CC4)cn3)nc2n(C2CCCC2)c1=O (centres unmarked)")
"50 to 200 nM"
>>> result("Cc1nc2c(F)cc(-c3nc(Nc4ccc(CN5CCN(C6CCN(c7ccc8c(c7)C(=O)N(C7CCC(=O)NC7=O)C8=O)CC6)CC5)cn4)ncc3F)cc2n1C(C)C (centres unmarked)")
"50 to 200 nM"
>>> result("CC(=O)c1c(C)c2cnc(Nc3ccc(N4CCN(CCN5CCN(c6ccc7c(c6)C(=O)N(C6CCC(=O)NC6=O)C7=O)CC5)CC4)cn3)nc2n(C2CCCC2)c1=O (centres unmarked)")
"50 to 200 nM"
>>> result("CC(=O)c1c(C)c2cnc(Nc3ccc(N4CCN(CC5CCN(c6ccc(N7CCC(=O)NC7=O)cc6)CC5)CC4)cn3)nc2n(C2CCCC2)c1=O")
"50 to 200 nM"
>>> result("CC(=O)c1c(C)c2cnc(Nc3ccc(N4CCN(C(=O)N5CCC(CN6CCC(c7ccc8c(c7)C(=O)N(C7CCC(=O)NC7=O)C8=O)CC6)CC5)CC4)cn3)nc2n(C2CCCC2)c1=O (centres unmarked)")
"50 to 200 nM"
>>> result("CN(C)C(=O)c1cc2cnc(Nc3ccc(N4CCN(CCCNc5ccc6c(c5)CN(C5CCC(=O)NC5=O)C6=O)CC4)cn3)nc2n1C1CCCC1 (centres unmarked)")
"< 50 nM"
>>> result("Cc1nc2c(F)cc(-c3nc(Nc4ccc(CN5CCN(CC6CCN(c7ccc8c(c7)C(=O)N(C7CCC(=O)NC7=O)C8=O)CC6)CC5)cn4)ncc3F)cc2n1C(C)C (centres unmarked)")
"< 50 nM"
>>> result("CC(=O)c1c(C)c2cnc(Nc3ccc(N4CCN(C5CCN(C(=O)N6CCN(c7ccc8c(c7)CN(C7CCC(=O)NC7=O)C8=O)CC6)CC5)CC4)cn3)nc2n(C2CCCC2)c1=O (centres unmarked)")
"> 200 nM"

====

Molecular target: CDK4 (Homo sapiens)
Construct: endogenous in cells
Assay: CDK4 degradation (DC50, Dmax)
Assay type: cell-based
Measured endpoint: Dmax

>>> result("CC(=O)c1c(C)c2cnc(Nc3ccc(N4CCN(C(=O)N5CCN(CCN6CCC(c7ccc8c(c7)CN(C7CCC(=O)NC7=O)C8=O)CC6)CC5)CC4)cn3)nc2n(C2CCCC2)c1=O (centres unmarked)")
"> 60%"
>>> result("CC(=O)c1c(C)c2cnc(Nc3ccc(N4CCN(CCN5CCN(C(=O)Nc6ccc7c(c6)C(=O)N(C6CCC(=O)NC6=O)C7=O)CC5)CC4)cn3)nc2n(C2CCCC2)c1=O (centres unmarked)")
"> 60%"
>>> result("Cc1nc2c(F)cc(-c3nc(Nc4ccc(CN5CCN(C6CCN(c7ccc(C(=O)NC8CCC(=O)NC8=O)cc7)CC6)CC5)cn4)ncc3F)cc2n1C(C)C (centres unmarked)")
"> 80%"
>>> result("CC(=O)c1c(C)c2cnc(Nc3ccc(N4CCN(C(=O)N5CCN(C6CCN(c7ccc8c(c7)CN(C7CCC(=O)NC7=O)C8=O)CC6)CC5)CC4)cn3)nc2n(C2CCCC2)c1=O (centres unmarked)")
"> 50%"
>>> result("CC(=O)c1c(C)c2cnc(Nc3ccc(N4CCN(CC5CN(c6ccc(NC7CCC(=O)NC7=O)cc6)C5)CC4)cn3)nc2n(C2CCCC2)c1=O (centres unmarked)")
"> 80%"
